- tested_on: G12D-mutant human KRAS (amino acid residues 1-188) (Homo sapiens, UniProt P01116, G12D)
- Construct: G12D or G12C-mutant human KRAS (amino acid residues 1-188) with FLAG tag; made in house; host or cells: E. coli
- Sequence (P01116 1-188 isoform P01116-2 G12D): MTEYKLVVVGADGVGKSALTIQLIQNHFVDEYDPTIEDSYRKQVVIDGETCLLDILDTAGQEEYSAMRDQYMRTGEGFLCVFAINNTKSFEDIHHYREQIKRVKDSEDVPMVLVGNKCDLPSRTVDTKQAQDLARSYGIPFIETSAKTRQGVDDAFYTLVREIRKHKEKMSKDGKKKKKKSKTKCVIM
- test: KRAS Binding Disruption Assay (AlphaScreen; biotinylated KRpep-2d analogue or RAF1-RBD), G12D
- condition_details: KRAS G12D; geometric mean; read-out: KRAS GMean IC50 (uM) MUTATION: G12D
parameter: IC50

smiles_record=CN1CCC[C@H]1COc1nc(N2C[C@H]3CC[C@@H]2CN3)c2ccc(-c3cc(O)cc4ccccc34)cc2n1 parameter=IC50 obs_value="0.0001 to 10 µM"
smiles_record=NC(=O)CN1[C@@H]2CC[C@H]1CN(c1nc(OCC34CCCN3CCC4)nc3c(F)c(-c4cc(O)cc5ccccc45)ccc13)C2 parameter=IC50 obs_value="0.0001 to 10 µM"
smiles_record=CN1CCC[C@H]1COc1nc(N2C[C@H]3CC[C@@H](C2)N3)c2ccc(-c3nccc4cccc(C(F)(F)F)c34)c(F)c2n1 parameter=IC50 obs_value="10 to 100 µM"
smiles_record=CC(C)(O)CNC(=O)N1[C@@H]2CC[C@H]1CN(c1nc(OCC34CCCN3CCC4)nc3cc(-c4cc(O)cc5ccccc45)ccc13)C2 parameter=IC50 obs_value="0.0001 to 10 µM"
smiles_record=CN1CCC[C@H]1COc1nc(N2C[C@H]3CC[C@@H](C2)N3)c2cc(F)c(N3CCNc4ccccc43)c(F)c2n1 parameter=IC50 obs_value="0.0001 to 10 µM"
smiles_record=CC(=O)Nc1ccc(F)c(-c2ccc3c(N4C[C@H]5CC[C@@H](C4)N5)nc(OC[C@@H]4CCCN4C)nc3c2)c1 parameter=IC50 obs_value="100 to 1000 µM"
smiles_record=CCc1cccc2[nH]cc(-c3ccc4c(N5C[C@H]6CC[C@@H](C5)N6)nc(OCC56CCCN5CCC6)nc4c3)c12 parameter=IC50 obs_value="0.0001 to 10 µM"
